assay.target: purified human IDO protein (Homo sapiens, UniProt P14902)
Construct: 2 extra amino acids (linker from the BglII cloning site of pQE70); made in house; host or cells: E. coli M15(pREP4) with plasmid pQE70-hIDO
Sequence (P14902 whole entry P110S/E119G): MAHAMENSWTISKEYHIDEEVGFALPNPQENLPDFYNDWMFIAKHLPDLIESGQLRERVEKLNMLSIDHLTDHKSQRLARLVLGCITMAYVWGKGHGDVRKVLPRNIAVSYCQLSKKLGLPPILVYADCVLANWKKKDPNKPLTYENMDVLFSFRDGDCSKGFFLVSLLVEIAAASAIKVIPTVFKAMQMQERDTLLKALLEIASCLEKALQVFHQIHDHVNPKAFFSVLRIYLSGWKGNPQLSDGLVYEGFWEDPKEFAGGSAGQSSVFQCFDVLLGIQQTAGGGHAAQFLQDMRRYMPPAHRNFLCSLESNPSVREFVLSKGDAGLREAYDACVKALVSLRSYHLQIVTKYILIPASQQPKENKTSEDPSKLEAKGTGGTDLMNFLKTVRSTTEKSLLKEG
assay.remarks: Enzymatic IDO assay (kynurenine production, absorbance at 480 nm)
Type: biochemical
recorded.conditions: recombinant human IDO; values reported in ranges; read-out: hIDO IC50
pIC50: −log10 of the molar value.
molecules and their reported pIC50

Some solved cases for reference:
CC(C)(C)C(=O)Nc1ccc(CCOc2ccccc2-c2c[nH]cn2)cc1	5.00 to 6.00
c1ccc(-c2c[nH]cn2)c(OCCN2CCOCC2)c1	< 4.00
Oc1ccc(-c2ccccc2)cc1-c1c[nH]cn1	4.00 to 5.00
O=C(CC1CCOCC1)Nc1ccc(CCOc2ccccc2-c2c[nH]cn2)cc1Cl	4.00 to 5.00
CN1CCN(CCOc2ccccc2-c2c[nH]cn2)CC1	< 4.00

Enquiry: Provide one value: measured pIC50 of Oc1ccc(Cl)cc1-c1cncn1-c1cccnc1
Return: 4.00 to 5.00

Enquiry: Give pIC50 for the following molecule: c1ccc(-c2c[nH]cn2)c(OCc2cscn2)c1
Return: 4.00 to 5.00

Enquiry: Give the value of pIC50 reported for the following: Oc1c(-c2cnc[nH]2)[nH]c2ccccc12
Return: < 4.00

Enquiry: Report pIC50 for Nc1ccccc1CC(=O)Nc1ccc(CCOc2ccccc2-c2c[nH]cn2)cc1
Return: > 6.00

Enquiry: Dear colleague, please send me the reported pIC50 for c1ccc(-c2cncn2-c2ccccc2)cc1 when you can.
Return: 4.00 to 5.00

Enquiry: Give recorded pIC50. C1=CCC(CCOc2ccccc2-c2c[nH]cn2)CC1 (stereo not drawn)
Return: 5.00 to 6.00

Enquiry: Supply measured pIC50 of CC(=O)Nc1ccccc1-c1c[nH]cn1 [compound 1121, N-(2-(1H-imidazol-4-yl)phenyl)acetamide] in your reply.
Return: < 4.00

Enquiry: Give the measured pIC50 for c1ccc(-c2c[nH]cn2)c(OCCC2CCCO2)c1 (stereo not drawn)
Return: 4.00 to 5.00

* * *

assay.target: purified human IDO protein (Homo sapiens)
Construct: 2 extra amino acids (linker from the BglII cloning site of pQE70); made in house; host or cells: E. coli M15(pREP4) with plasmid pQE70-hIDO
assay.remarks: Enzymatic IDO assay (kynurenine production, absorbance at 480 nm)
Format: biochemical
recorded.conditions: recombinant human IDO; values reported in ranges; read-out: hIDO IC50
pIC50: −log10 of the molar value.
property.label: pIC50

Below, 3 compounds whose answers are already recorded.
c1ccc(-c2c[nH]cn2)c(OCCc2ccc(-c3ccsc3)cc2)c1	4.00 to 5.00
c1nc(-c2ccc3c(c2)OCO3)c[nH]1	< 4.00
O=C(CC1CCOCC1)Nc1ccc(CCOc2ccccc2-c2c[nH]cn2)cc1	5.00 to 6.00

Enquiry: Fill in pIC50 for record O=C(Cc1ncccn1)Nc1ccc(CCOc2ccccc2-c2c[nH]cn2)cc1
Return: 5.00 to 6.00

Enquiry: Give pIC50 for the following compound: c1ccc(-c2c[nH]cn2)c(OCc2ccc3occc3c2)c1
Return: 4.00 to 5.00

* * *

assay.target: purified human IDO protein (Homo sapiens)
Construct: 2 extra amino acids (linker from the BglII cloning site of pQE70); made in house; host or cells: E. coli M15(pREP4) with plasmid pQE70-hIDO
assay.remarks: Enzymatic IDO assay (kynurenine production, absorbance at 480 nm)
Assay type: biochemical
recorded.conditions: recombinant human IDO; values reported in ranges; read-out: hIDO IC50
property.label: IC50

Enquiry: For the compound O=C(Cc1ccc([N+](=O)[O-])cc1)Nc1ccc(CCOc2ccccc2-c2c[nH]cn2)cc1 , give its measured IC50 value.
Return: < 1 µM

Enquiry: Look up IC50 of COc1ccccc1-c1cnco1 and report it.
Return: > 100 µM

Enquiry: Give the reported IC50 for this compound. COC(=O)c1ccc(C(=O)Nc2ccc(CCOc3ccccc3-c3c[nH]cn3)cc2)cc1
Return: 1 to 10 µM

Enquiry: Query IC50 for O=C(Oc1ccc(Cl)cc1-c1c[nH]cn1)N1CCCC1
Return: > 100 µM

Recorded values, source patent US8722720B2.
